The measurements presented in this section are drawn from patent US5064947A.

Biological target: adenosine A-2 receptors (Rattus norvegicus)
Construct: from tissue; host or cells: striatal membranes of young male rats (C-D strain, from Charles River)
Sequence (P30543 whole entry): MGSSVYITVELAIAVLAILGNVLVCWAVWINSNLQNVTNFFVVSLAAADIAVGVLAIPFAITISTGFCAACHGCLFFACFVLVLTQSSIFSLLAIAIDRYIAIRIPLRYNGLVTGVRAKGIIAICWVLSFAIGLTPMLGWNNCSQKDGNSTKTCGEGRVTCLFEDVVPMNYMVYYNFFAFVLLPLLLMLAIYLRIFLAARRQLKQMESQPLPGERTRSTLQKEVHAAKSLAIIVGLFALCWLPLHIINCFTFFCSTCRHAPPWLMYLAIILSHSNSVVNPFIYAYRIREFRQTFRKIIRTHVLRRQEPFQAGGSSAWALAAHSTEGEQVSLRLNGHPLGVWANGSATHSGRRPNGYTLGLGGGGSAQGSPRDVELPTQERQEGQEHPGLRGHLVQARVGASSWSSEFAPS
Assay: Affinity for brain adenosine A-2 receptors ([3H]NECA displacement, rat brain striatum membranes)
Format: binding
Details: ratio of A-2 Ki to A-1 Ki (selectivity)
ATTRIBUTE_MEASURED: A-2 Ki/A-1 Ki

> print(dat)
                                   molecule  endpoint.value
1  CCCOC1=Nc2c(ncn2-c2ccccc2)C2=N[C@@H](Cc3ccccc3)CN12            0.18
2  CCCOC1=Nc2c(cnn2-c2ccccc2)C2=N[C@@H](Cc3ccccc3)CN12            0.18
3  CCCOC1=Nc2c(cnn2-c2ccccc2)C2=N[C@H](C)[C@@H](c3ccccc3)N12            1.17
4  C1=Nc2c(cnn2-c2ccccc2)C2=N[C@H](Cc3ccccc3)CN12           13.20
